Could you please report measured fluorescence slope for the items listed next?
target-desc: Voltage-gated potassium channel subunit beta-2 (Rattus norvegicus) (UniProt P62483)
Sequence (P62483 whole entry, looked up): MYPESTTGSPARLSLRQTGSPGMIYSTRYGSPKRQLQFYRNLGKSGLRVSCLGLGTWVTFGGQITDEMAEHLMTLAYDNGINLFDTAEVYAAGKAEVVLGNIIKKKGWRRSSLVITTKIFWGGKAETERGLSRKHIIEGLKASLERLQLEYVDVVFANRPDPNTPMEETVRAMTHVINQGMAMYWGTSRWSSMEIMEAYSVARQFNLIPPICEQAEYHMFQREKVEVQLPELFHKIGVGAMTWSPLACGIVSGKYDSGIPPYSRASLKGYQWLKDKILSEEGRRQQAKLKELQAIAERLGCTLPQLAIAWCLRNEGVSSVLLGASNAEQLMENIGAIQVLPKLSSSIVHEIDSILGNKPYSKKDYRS
method-summary: inhibitors of rat Kvbeta2 reductase activity – biochemical, NADPH fluorescence, primary screen (AID 622);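 also: slope of raw intensity against log time taken from 70 to 1610 s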
conditions-used: recombinant KvBeta, 4-cyanobenzaldehyde reduction, at 10 µM, stronger effect = higher value
Number only, no unit.

Would you mind telling me what fluorescence slope value was observed for CCCNC(=O)NC(C(=O)OC)C12CC3CC(CC(C3)C1)C2 (stereo not drawn) ? -0.321

Try this compound next: CCOC(=O)c1cccc(NC(=O)c2ccco2)c1 -0.387

Also need CCc1nnc2sc(-c3cc(-c4ccccc4)nc4ccccc34)nn12 , thanks. -0.436

What about this compound? CC1CCCN(C(=O)c2cc3c(-c4ccc(Cl)cc4)nn(C)c3s2)C1 (stereo not drawn) -0.607

Further, for CC(C)(C)C1CCc2[nH]nc(C(=O)O)c2C1 (stereo not drawn) ? -0.607

Record: COc1ccc(NC(=O)Nc2ccc(C)cc2OC(F)F)cc1OC -0.422

Same thing, different compound: Cc1ccc(S(=O)(=O)C(C#N)c2nc3ccccc3nc2N2CCCCC2)cc1 (stereo not drawn) -0.364

Subsequent entry: c1cnc2c(SCc3ccc(-c4nnco4)cc3)cccc2c1 -0.586

Okay, and Cc1cc(C(F)(F)F)nc(NCc2cccnc2)n1 ? -0.529

Field entry: CS(=O)(=O)NCCSCc1c(F)cccc1Cl -0.527

Now give it for CCOC(=O)Cn1nc(-c2ccc(C)cc2)ccc1=O too. -0.393

Same again, this time with O=C(CC1CCS(=O)(=O)C1)Nc1ccc[nH]c1=O (stereo not drawn) -0.41

How about CN(C(=O)c1cc2sccc2n1C)C1CCCCC1 ? -0.487

Next record, please: CCCn1nc(NC(=O)c2cccs2)c2cc3cc(OC)ccc3nc21 -0.119

Cool, now COc1ccccc1CN1C(=S)SC(C)(C)C1NO (stereo not drawn) -0.499

Now the compound CCCCCOC(=O)C1=C(C)N(C)C(=O)NC1c1cc(Br)c(O)c(OC)c1 (stereo not drawn) -0.624

Repeat with O=C1NC(=O)C(CC(=O)N(Cc2ccco2)C2(C(=O)NC3CCCC3)CCCCC2)N1 (stereo not drawn) -0.534

Next: CCN(c1c(C)n(C)n(-c2ccccc2)c1=O)S(C)(=O)=O -0.58

Record: CCN1CCN(Cc2nc3c(c(=O)[nH]c(=O)n3C)n2Cc2ccccc2Cl)CC1 -0.583

Can you handle COC(=O)CCSCc1cn2cc(Cl)ccc2n1 next? -0.509

Same again, this time with Cc1cccc(Nc2nc(N)nc(CN3CCC(C(N)=O)CC3)n2)c1C -0.628

c1ccc(-n2cnc3cc(NCc4ccccn4)ccc32)cc1 ? -0.596

Please answer likewise for Cc1nc2ccc(S(=O)(=O)NC(C(=O)Nc3nccs3)C(C)C)cc2s1 (stereo not drawn) -0.589

Let us now turn to C=CCn1c(SCC(=O)C(C)(C)C)nnc1-c1ccccn1 -0.291

For Cc1ccc(-n2c3c(cc(C(=O)NC4CCSC4=O)c2=O)C(=O)CC(C)(C)C3)cc1 (stereo not drawn) then? -0.458

Next compound up: c1ccc(-n2ncc3c(N4CCCCC4)ncnc32)cc1 -0.574

Similarly, Cc1nnc(NCCc2ccccc2)n(N)c1=O ? -0.514

Check Cc1cc(-c2ccccc2)c(C#N)c(N)n1 too. -0.394

Then what about the compound COc1cccc(NC(=O)COC(=O)c2cccnc2)c1 ? -0.503

Moving on to the next compound: Cc1[nH]c2ccccc2c(=O)c1CN1CCCCC1 -0.453

Now give it for Nc1nc(SCc2ccc(Cl)cc2Cl)n[nH]1 too. -0.387

Check COc1cc2cc(C(c3nnnn3C3CCCC3)N(C)C3CCCCC3)c(=O)[nH]c2cc1OC (stereo not drawn) too. -0.465

Thanks! And Cc1cc2nc(-c3ccco3)cc(C(F)(F)F)n2n1 ? -0.578

What do you have for COc1ccc(C2CC(=O)C(C=NCCCN3CCOCC3)=C(O)C2)cc1 (stereo not drawn) ? -0.351

Can you handle CCOc1ccc(-c2nnc(N)s2)cc1 next? -0.493

How about COc1ccc(OC)c(CNC(=O)COc2cc(=O)n(C)c3ccccc23)c1 ? -0.349

Another compound to check: CCN(CC(=O)Nc1c(C(=O)OC)[nH]c2ccccc12)c1ccc2c(c1)OCO2 -0.376

Subsequent entry: COc1ccccc1N(CN1CCCC1=O)C(=O)c1c(F)cccc1Cl -0.477

# repeat for COc1cccc(/C=N/n2cnnc2)c1OCc1ccccc1 -0.448

Note, next up: CC1CC(C)CN(c2ncnc3c2cnn3-c2ccc(Cl)cc2)C1 (stereo not drawn) -0.504

What do we get for CC(=O)NC(=O)NC1CSCC1OC(C)=O (stereo not drawn) ? -0.445

Moving on to CN(C)CCCN1C(=O)C(=O)/C(=C(/O)c2ccncc2)C1c1cccc(Br)c1 (stereo not drawn) -0.612

Request: O=C1C(C=NCCCn2ccnc2)=C(O)c2ccccc21 -0.589

Could you do the same for O=c1c2c(-c3ccccc3)csc2nc2n1CCC2 , please? -0.588

And what about the compound O=C(CSc1nc2ccccc2o1)Nc1ccccc1 ? -0.285

Another compound to check: O=C(CNC(=O)c1ccccc1C(=O)O)c1ccccc1 -0.42

Repeat with Cc1ccc(C(=O)N2CCCC(c3nc4c(nnn4Cc4ccccc4)c(=O)[nH]3)C2)cc1 (stereo not drawn) -0.38

Another compound to check: O=C(NCCN1C(=O)C2C3C=CC(C3)C2C1=O)N1CCOCC1 (stereo not drawn) -0.586
